Recorded pIC50 values for a group of compounds are listed next.
Tested on: K12877-001-R-J1-PDC complex spheroid viability
Protocol Notes: Anticancer human tumor K12877-001-R-J1-PDC patient-derived lung adenocarcinoma cell line growth inhibition [RAS]
Experimental Setup: curve of first compound; second compound 1 µM
pIC50: −log10 of the molar value.

Compound | Assay System | pIC50
O=C(c1ccc(F)c(F)c1Nc1ccc(I)cc1F)N1CC(O)([C@@H]2CCCCN2)C1 + C#Cc1c(F)ccc2cc(O)cc(-c3ncc4c(N5CC6CCC(C5)N6)nc(OCC56CCCN5CC(F)C6)nc4c3F)c12 | K12877-001-R-J1-PDC complex spheroid viability | < 6.00

Note to self: pIC50 recorded for C=CC(=O)Nc1cc(Nc2nccc(-c3cn(C)c4ccccc34)n2)c(OC)cc1N(C)CCN(C)C + C#Cc1c(F)ccc2cc(O)cc(-c3ncc4c(N5CC6CCC(C5)N6)nc(OCC56CCCN5CC(F)C6)nc4c3F)c12 was < 6.00

Note to self: pIC50 recorded for NC1c2ccccc2OC12CCN(c1cnc3c(N4CCCc5ncccc54)n[nH]c3n1)CC2 (configuration not stated) + C#Cc1c(F)ccc2cc(O)cc(-c3ncc4c(N5CC6CCC(C5)N6)nc(OCC56CCCN5CC(F)C6)nc4c3F)c12 was < 5.00

Note to self: pIC50 recorded for C[C@@H](NC(=O)c1ncnc(N)c1Cl)c1ncc(C(=O)Nc2cc(C(F)(F)F)c(Cl)cn2)s1 + C#Cc1c(F)ccc2cc(O)cc(-c3ncc4c(N5CC6CCC(C5)N6)nc(OCC56CCCN5CC(F)C6)nc4c3F)c12 was < 5.00

----------
System: K12877-001-R-J1-PDC complex spheroid viability
Protocol Notes: Anticancer human tumor K12877-001-R-J1-PDC cell line growth inhibition [RAS];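 also: spheroids exposed to agents for one week before readout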;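 as to viability, T/C: tumour cells co-cultured with HUVEC and mesenchymal stem cells in spheroids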
Experimental Setup: second compound 0.003 µM; first compound 0.00316 µM; stronger effect = lower value
Recorded viability, T/C values for a group of molecules are listed next.

Molecule | Recorded Value
CC(C)n1nc(-c2ccc3oc(N)nc3c2)c2c(N)ncnc21 + CCn1c(-c2cc(N3CCN(C)CC3)cnc2C(C)OC)c2c3cc(ccc31)-c1csc(n1)CC(NC(=O)C1CC1C)C(=O)N1CCCC(N1)C(=O)OCC(C)(C)C2 | 69.9%
CCN1CCN(Cc2ccc(Nc3ncc(F)c(-c4cc(F)c5nc(C)n(C(C)C)c5c4)n3)nc2)CC1 + CCn1c(-c2cccnc2C(C)OC)c2c3cc(ccc31)N1CCOC(CC(NC(=O)C(C(C)C)N(C)C(=O)C3(F)CCN(C(=O)C#CC(C)(C)N(C)C)CC3)C(=O)N3CCCC(N3)C(=O)OCC(C)(C)C2)C1 | 71.8%

Now for the molecule whose viability, T/C we want.
Note to self: viability, T/C recorded for O=C(c1ccc(F)c(F)c1Nc1ccc(I)cc1F)N1CC(O)([C@@H]2CCCCN2)C1 + CCn1c(-c2cc(N3CCN(C)CC3)cnc2C(C)OC)c2c3cc(ccc31)-c1csc(n1)CC(NC(=O)C1CC1C)C(=O)N1CCCC(N1)C(=O)OCC(C)(C)C2 was 71.4%

----------
System: K12877-001-R-J1-PDC complex spheroid viability
Protocol Notes: Anticancer human tumor K12877-001-R-J1-PDC cell line growth inhibition [RAS];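 also: spheroids exposed to agents for one week before readout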
Experimental Setup: curve of first compound; second compound 1 µM
Measured Property: IC50

Illustrative cases are given below, each with its answer.
Molecule | Recorded Value
C=CC(=O)Nc1cc(Nc2nccc(-c3cn(C)c4ccccc34)n2)c(OC)cc1N(C)CCN(C)C + C=CC(=O)N1CCN(c2nc(OCC3CCCN3C)nc3c(F)c(-c4nc(N)cc(C)c4C(F)(F)F)c(Cl)cc23)C(C)C1 | > 1000 nM
CC(=O)OC12COC1CC(O)C1(C)C(=O)C(O)C3=C(C)C(OC(=O)C(O)C(NC(=O)OC(C)(C)C)c4ccccc4)CC(O)(C(OC(=O)c4ccccc4)C21)C3(C)C (centres undefined) + C#Cc1c(F)ccc2cc(O)cc(-c3ncc4c(N5CC6CCC(C5)N6)nc(OCC56CCCN5CC(F)C6)nc4c3F)c12 | < 31.6 nM
O=C(c1ccc(F)c(F)c1Nc1ccc(I)cc1F)N1CC(O)([C@@H]2CCCCN2)C1 + C=CC(=O)N1CCN(c2nc(OCC3CCCN3C)nc3c(F)c(-c4nc(N)cc(C)c4C(F)(F)F)c(Cl)cc23)C(C)C1 | > 1000 nM

Note to self: IC50 recorded for CCN1CCN(Cc2ccc(Nc3ncc(F)c(-c4cc(F)c5nc(C)n(C(C)C)c5c4)n3)nc2)CC1 + C#Cc1c(F)ccc2cc(O)cc(-c3ncc4c(N5CC6CCC(C5)N6)nc(OCC56CCCN5CC(F)C6)nc4c3F)c12 was > 1000 nM
